These data points were gathered from ChEMBL document CHEMBL6109152.

molecular target: Bromodomain-containing protein 4 (Homo sapiens, UniProt O60885); test: Binding affinity to BRD4-BD2 domain (unknown origin) assessed as assessed as dissociation constant by ITC analysis
pKd: −log10 of the molar value.

Smiles repr	Target under test	pKd
COc1cc2c(NC3CCN(CCCC(=O)NCCCCCCCCCCNC(=O)C[C@@H]4N=C(c5ccc(Cl)cc5)c5c(sc(C)c5C)-n5c(C)nnc54)CC3)cc(N3CCOCC3)nc2cc1OCCCN1CCCC1	Bromodomain-containing protein 4 (Homo sapiens, UniProt O60885)	6.70
